experiment: Stability of the seven components in rat plasma QC samples; type: physicochemical; details: low QC level, n = 6
readoutName: −80°C for 30 days, RE (%)
Expressed in %, but write only the number.

−80°C for 30 days, RE recorded for this compound, C=C(CC[C@@H](C(=O)O)[C@H]1[C@H](O)C[C@@]2(C)C3=CC[C@H]4C(C)(C)[C@@H](O)CC[C@]4(C)C3=CC[C@]12C)C(C)C [Dehydrotumulosic acid, dehydrotumulosic acid] , is 3.2

−80°C for 30 days, RE recorded for this compound, `O=C(O)/C=C/c1ccccc1` , is −8.0

−80°C for 30 days, RE recorded for this compound, `O=C(/C=C/c1ccc(O[C@@H]2O[C@H](CO)[C@@H](O)[C@H](O)[C@H]2O)cc1)c1ccc(O)cc1O` , is −1.1

−80°C for 30 days, RE recorded for this compound, C=C1CCC[C@]2(C)C[C@]3(O)OC(=O)C(C)=C3C[C@@H]12 [Atractylenolide III, atractylenolide III] , is −4.4

−80°C for 30 days, RE recorded for this compound, `CC1(C)[C@@H](O[C@H]2O[C@H](C(=O)O)[C@@H](O)[C@H](O)[C@H]2O[C@@H]2O[C@H](C(=O)O)[C@@H](O)[C@H](O)[C@H]2O)CC[C@]2(C)[C@H]3C(=O)C=C4[C@@H]5C[C@@](C)(C(=O)O)CC[C@]5(C)CC[C@@]4(C)[C@]3(C)CC[C@@H]12` , is −1.0

Continuing:
−80°C for 30 days, RE recorded for this compound, `CC1(C)[C@@H](O)CC[C@]2(C)[C@H]3C(=O)C=C4[C@@H]5C[C@@](C)(C(=O)O)CC[C@]5(C)CC[C@@]4(C)[C@]3(C)CC[C@@H]12` , is −5.2

−80°C for 30 days, RE recorded for this compound, `O=C1C[C@@H](c2ccc(O[C@@H]3O[C@H](CO)[C@@H](O)[C@H](O)[C@H]3O)cc2)Oc2cc(O)ccc21` , is −4.1

----------
Readings of half-life for the listed molecules
assay: Pharmacokinetic study of LGZGD components in plasma of normal and NAFLD rats after oral administration (UPLC-MS/MS); type: in vivo, Male Sprague–Dawley rats; details: male, Sprague-Dawley, rat, plasma, po, 23 g/kg, Model (NAFLD) group, male SD rats, oral LGZGD extract 23 g/kg, plasma, mean ± SD, n = 6
Expressed in h, but write only the number.

Observe how each entry below is paired with its result.
half-life recorded for this molecule, `O=C(O)/C=C/c1ccccc1` , is 6.6

half-life recorded for this molecule, C=C(CC[C@@H](C(=O)O)[C@H]1[C@H](O)C[C@@]2(C)C3=CC[C@H]4C(C)(C)[C@@H](O)CC[C@]4(C)C3=CC[C@]12C)C(C)C [Dehydrotumulosic acid, dehydrotumulosic acid] , is 5

half-life recorded for this molecule, C=C1CCC[C@]2(C)C[C@]3(O)OC(=O)C(C)=C3C[C@@H]12 [Atractylenolide III, atractylenolide III] , is 18.3

half-life recorded for this molecule, `O=C1C[C@@H](c2ccc(O[C@@H]3O[C@H](CO)[C@@H](O)[C@H](O)[C@H]3O)cc2)Oc2cc(O)ccc21` , is 6

Continuing:
half-life recorded for this molecule, `CC1(C)[C@@H](O)CC[C@]2(C)[C@H]3C(=O)C=C4[C@@H]5C[C@@](C)(C(=O)O)CC[C@]5(C)CC[C@@]4(C)[C@]3(C)CC[C@@H]12` , is 8.9

half-life recorded for this molecule, `O=C(/C=C/c1ccc(O[C@@H]2O[C@H](CO)[C@@H](O)[C@H](O)[C@H]2O)cc1)c1ccc(O)cc1O` , is 13.1

half-life recorded for this molecule, `CC1(C)[C@@H](O[C@H]2O[C@H](C(=O)O)[C@@H](O)[C@H](O)[C@H]2O[C@@H]2O[C@H](C(=O)O)[C@@H](O)[C@H](O)[C@H]2O)CC[C@]2(C)[C@H]3C(=O)C=C4[C@@H]5C[C@@](C)(C(=O)O)CC[C@]5(C)CC[C@@]4(C)[C@]3(C)CC[C@@H]12` , is 5.4

----------
Readings of Tmax for the listed compounds
Test: Pharmacokinetic study of LGZGD components in plasma of normal and NAFLD rats after oral administration (UPLC-MS/MS)
Type: in vivo, Male Sprague–Dawley rats
Conditions: male, Sprague-Dawley, rat, plasma, po, 23 g/kg, Model (NAFLD) group, male SD rats, oral LGZGD extract 23 g/kg, plasma, mean ± SD, n = 6
From the text: Male Sprague–Dawley rats, weighing 200–220 g, SPF grade, were purchased from Shanghai Sippr-BK laboratory animal Co. Ltd. (Shanghai, China) and raised in the Laboratory Animal Center of Shanghai University of Traditional Chinese Medicine. […] An Agilent 1290 UPLC system was combined with an Agilent 6460 series MS/MS system (Agilent Technologies, Santa Clara, CA, United States) to quantify the analytes in the ESI-positive ionization mode. […]
Expressed in h, but write only the number.

Observe how each entry below is paired with its result.
Tmax recorded for this compound, CC1(C)[C@@H](O)CC[C@]2(C)[C@H]3C(=O)C=C4[C@@H]5C[C@@](C)(C(=O)O)CC[C@]5(C)CC[C@@]4(C)[C@]3(C)CC[C@@H]12 [Glycyrrhetinic acid, glycyrrhetinic acid] , is 13.2

Tmax recorded for this compound, O=C1C[C@@H](c2ccc(O[C@@H]3O[C@H](CO)[C@@H](O)[C@H](O)[C@H]3O)cc2)Oc2cc(O)ccc21 [Liquiritin, liquiritin] , is 6.8

Now for another entry.
Tmax recorded for this compound, C=C1CCC[C@]2(C)C[C@]3(O)OC(=O)C(C)=C3C[C@@H]12 [Atractylenolide III, atractylenolide III] , is 0.6

----------
assay: Pharmacokinetic study of LGZGD components in plasma of normal and NAFLD rats after oral administration (UPLC-MS/MS); type: in vivo, Male Sprague–Dawley rats; settings: male, Sprague-Dawley, rat, plasma, po, 23 g/kg, Normal group, male SD rats, oral LGZGD extract 23 g/kg, plasma, mean ± SD, n = 6
Readings of Tmax for the listed compounds
Expressed in h, but write only the number.

Tmax recorded for this compound, `CC1(C)[C@@H](O[C@H]2O[C@H](C(=O)O)[C@@H](O)[C@H](O)[C@H]2O[C@@H]2O[C@H](C(=O)O)[C@@H](O)[C@H](O)[C@H]2O)CC[C@]2(C)[C@H]3C(=O)C=C4[C@@H]5C[C@@](C)(C(=O)O)CC[C@]5(C)CC[C@@]4(C)[C@]3(C)CC[C@@H]12` , is 10.4

Tmax recorded for this compound, `O=C(O)/C=C/c1ccccc1` , is 0.6

Continuing:
Tmax recorded for this compound, `CC1(C)[C@@H](O)CC[C@]2(C)[C@H]3C(=O)C=C4[C@@H]5C[C@@](C)(C(=O)O)CC[C@]5(C)CC[C@@]4(C)[C@]3(C)CC[C@@H]12` , is 9.3

----------
experiment: Pharmacokinetic study of LGZGD components in plasma of normal and NAFLD rats after oral administration (UPLC-MS/MS); type: in vivo, Male Sprague–Dawley rats; conditions: male, Sprague-Dawley, rat, plasma, po, 23 g/kg, Normal group, male SD rats, oral LGZGD extract 23 g/kg, plasma, mean ± SD, n = 6
readoutName: AUC(0-t) (ng·h/mL)
Expressed in ng·h/mL, but write only the number.

AUC(0-t) recorded for this compound, `CC1(C)[C@@H](O[C@H]2O[C@H](C(=O)O)[C@@H](O)[C@H](O)[C@H]2O[C@@H]2O[C@H](C(=O)O)[C@@H](O)[C@H](O)[C@H]2O)CC[C@]2(C)[C@H]3C(=O)C=C4[C@@H]5C[C@@](C)(C(=O)O)CC[C@]5(C)CC[C@@]4(C)[C@]3(C)CC[C@@H]12` , is 81000

Now for another entry.
AUC(0-t) recorded for this compound, `O=C(/C=C/c1ccc(O[C@@H]2O[C@H](CO)[C@@H](O)[C@H](O)[C@H]2O)cc1)c1ccc(O)cc1O` , is 108

----------
Readings of AUC(0-inf) for the listed compounds
test: Pharmacokinetic study of LGZGD components in plasma of normal and NAFLD rats after oral administration (UPLC-MS/MS); format: in vivo, Male Sprague–Dawley rats; conditions: male, Sprague-Dawley, rat, plasma, po, 23 g/kg, Model (NAFLD) group, male SD rats, oral LGZGD extract 23 g/kg, plasma, mean ± SD, n = 6
Expressed in ng·h/mL, but write only the number.

Observe how each entry below is paired with its result.
AUC(0-inf) recorded for this compound, `O=C1C[C@@H](c2ccc(O[C@@H]3O[C@H](CO)[C@@H](O)[C@H](O)[C@H]3O)cc2)Oc2cc(O)ccc21` , is 53400

AUC(0-inf) recorded for this compound, `O=C(O)/C=C/c1ccccc1` , is 4410

AUC(0-inf) recorded for this compound, `O=C(/C=C/c1ccc(O[C@@H]2O[C@H](CO)[C@@H](O)[C@H](O)[C@H]2O)cc1)c1ccc(O)cc1O` , is 56.9

Now for another entry.
AUC(0-inf) recorded for this compound, C=C1CCC[C@]2(C)C[C@]3(O)OC(=O)C(C)=C3C[C@@H]12 [Atractylenolide III, atractylenolide III] , is 166
